Where these numbers come from: patent US6727264B1

- Assay Target: rat MCH-1 (Rattus norvegicus)
- Experiment Summary: Radioligand binding assay at cloned rat MCH1 receptor ([3H] Compound A)
- Design: host or cells: Peak rapid 293 (Peakr293) cells, transient calcium phosphate transfection, membranes
- Condition Notes: cloned rat MCH1 receptor, membranes from Peakr293 cells, 0.08 nM [3H] Compound A; read-out: Ki (nM) rMCH1
Mark Criterion met only when Ki stays strictly below 100 nM. Values equal to the cut-off are Criterion not met.

Example cases with answers are listed next.
[ask] Below 100 nM on Ki? Entry CC(C)C(=O)Nc1cccc(C2CCN(Cc3ccc(Oc4ccc(F)c(F)c4)cc3)CC2)n1
[reply] Criterion met

[ask] Below 100 nM on Ki? Entry CC(C)CCOc1ccc(CN2CCC(c3cccc(NC(=O)C(C)C)c3)CC2)c2ccccc12
[reply] Criterion not met

[ask] Below 100 nM on Ki? Entry COC(=O)c1ccc(OC(CCN2CCC(c3cccc(NC(=O)C(C)C)c3)CC2)c2ccc(Br)cc2)cc1 (centres unmarked)
[reply] Criterion met

[ask] Below 100 nM on Ki? Entry CC(C)C(=O)Nc1cccc(C2CCN(CCC(Oc3c(F)c(F)c(F)c(F)c3F)c3ccc(F)cc3)CC2)c1 (centres unmarked)
[reply] Criterion met

[ask] Below 100 nM on Ki? Entry Cc1c(CN2CCC(c3cccc(NC(=O)C(C)C)c3)CC2)cnn1-c1ccccc1
[reply] Criterion not met

---
[ask] Below 100 nM on Ki? Entry CC(C)C(=O)Nc1cccc(C2CCN(Cc3ccc4c(c3)OCCO4)CC2)c1
[reply] Criterion not met

[ask] Below 100 nM on Ki? Entry CCOC(=O)c1c(CN2CCC(c3cccc(NC(=O)C(C)C)c3)CC2)c(C)n(-c2ccccc2)c1C
[reply] Criterion not met

[ask] Below 100 nM on Ki? Entry CC(C)C(=O)Nc1cccc(C2CCN(Cc3cccc(N(C)C)c3)CC2)c1
[reply] Criterion not met

====

- Assay Target: rat MCH-1 (Rattus norvegicus, UniProt P97639)
- Sequence (P97639 whole entry): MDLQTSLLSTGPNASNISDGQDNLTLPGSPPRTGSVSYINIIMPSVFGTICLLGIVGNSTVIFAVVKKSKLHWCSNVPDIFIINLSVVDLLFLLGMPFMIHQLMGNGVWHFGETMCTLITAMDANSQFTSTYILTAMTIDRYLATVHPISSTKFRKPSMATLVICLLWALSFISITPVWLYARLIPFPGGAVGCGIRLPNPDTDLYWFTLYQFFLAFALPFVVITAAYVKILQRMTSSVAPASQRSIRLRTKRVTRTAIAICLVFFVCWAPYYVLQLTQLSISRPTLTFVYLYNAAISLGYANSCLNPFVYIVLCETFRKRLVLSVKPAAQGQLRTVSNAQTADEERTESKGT
- Experiment Summary: Radioligand binding assay at cloned rat MCH1 receptor ([3H] Compound A)
- Design: host or cells: Peak rapid 293 (Peakr293) cells, transient calcium phosphate transfection, membranes
- Condition Notes: cloned rat MCH1 receptor; 0.08 nM [3H] Compound A; Peakr293 cell membranes; read-out: Ki (nM) rMCH1
# key: entry, value: log10 Ki
Please interpret these as log10 of Ki where Ki is in nM.

[ask] State its log10 Ki: O=C(CCCN1CCC(c2cccc(NC(=O)C3CC3)c2)CC1)c1ccc(F)cc1
[reply] 2.10

[ask] State its log10 Ki: CC(C)C(=O)Nc1cccc(C2CCN(CCCCC(Oc3ccc(Br)cc3)c3ccccc3)CC2)c1 (stereo not shown)
[reply] 1.12

[ask] State its log10 Ki: COc1ccc2[nH]c(-c3ccccc3F)c(CCCN3CCC(c4cccc(NC(=O)C(C)C)c4)CC3)c2c1
[reply] 0.93

[ask] State its log10 Ki: COc1ccccc1-n1cc(CN2CCC(c3cccc(NC(=O)C(C)C)c3)CC2)c2ccccc21
[reply] 0.99

[ask] State its log10 Ki: COC(=O)c1ccc2c(CN3CCC(c4cccc(NC(=O)C(C)C)c4)CC3)c[nH]c2c1
[reply] 1.72

[ask] State its log10 Ki: CC(C)C(=O)Nc1cccc(C2CCN(CCCCCC(Oc3ccc(Br)cc3)c3ccccc3)CC2)c1 (stereo not shown)
[reply] 1.48

---
[ask] State its log10 Ki: Cc1cccc2c(CCCN3CCC(c4cccc(NC(=O)C(C)C)c4)CC3)c(-c3ccc([N+](=O)[O-])cc3)[nH]c12
[reply] 0.88
